target: Nuclear receptor subfamily 1 group I member 2 (Homo sapiens) (UniProt O75469); experiment: NVS_NR_hPXR: NovaScreen (NVS) Nuclear Receptor Binding Assay for human Pregnane X Receptor (PXR) (AID 2283365);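 note: a drop in FRET signal versus DMSO baseline means the compound binds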
Sequence (O75469 whole entry, looked up): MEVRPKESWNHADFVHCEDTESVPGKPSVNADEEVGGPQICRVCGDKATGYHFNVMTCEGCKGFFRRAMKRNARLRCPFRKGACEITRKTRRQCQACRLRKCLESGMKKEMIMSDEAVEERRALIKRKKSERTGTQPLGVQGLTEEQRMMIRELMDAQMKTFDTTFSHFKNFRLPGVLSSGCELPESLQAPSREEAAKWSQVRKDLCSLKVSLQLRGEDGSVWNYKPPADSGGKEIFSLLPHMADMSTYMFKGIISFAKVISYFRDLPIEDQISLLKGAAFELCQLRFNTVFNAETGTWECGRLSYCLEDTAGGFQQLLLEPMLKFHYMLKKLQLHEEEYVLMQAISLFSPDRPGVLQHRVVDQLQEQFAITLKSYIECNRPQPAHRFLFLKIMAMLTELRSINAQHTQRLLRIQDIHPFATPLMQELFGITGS
Records with an inconclusive call do not appear. Activity calls are given as the source filed them. Rule for the calls: active = hit-call score of the fitted dose curve at least 0.9, where 1 is the maximum; inconclusive = response in the unintended direction; inactive = score below 0.9.
assay.metric: outcome

Worked cases, answers included:
O=C1CCC(C2CCCCC2)CC1    inactive
Oc1ccccc1    inactive
CC1(C)NC(=O)N(c2ccc([N+](=O)[O-])c(C(F)(F)F)c2)C1=O    inactive
NC(=O)c1nc(-c2cccc(-c3cc(F)ccc3OCC(F)(F)C(F)(F)F)c2)n[nH]1    inactive

Query: May I ask what outcome has been recorded for C[C@]12CC[C@@H]3c4ccc(O)cc4CC[C@H]3[C@@H]1CC[C@H]2O ?
Result: inactive

Query: Entry to check: CCCCCCCC[Si](OCC)(OCC)OCC
Result: inactive

Query: Entry to check: Clc1ccccc1C(c1ccccc1)(c1ccccc1)n1ccnc1
Result: inactive
